details: in water, 323.45 K
quantity: solubility (mole fraction)
One number for each entry.

Field request: solubility (mole fraction) | item: O=C(O)[C@@H]1Cc2ccccc2N1 0.000547

----------
conditions: in water, 297.45 K
quantity: solubility (mole fraction)
Answers are plain numbers.

Field request: solubility (mole fraction) | item: O=C(O)[C@@H]1Cc2ccccc2N1 0.000322

----------
conditions: in water, 342.95 K
quantity: solubility (mole fraction)

Field request: solubility (mole fraction) | item: O=C(O)[C@@H]1Cc2ccccc2N1 0.00138

----------
settings: in n-butanol, 298.25 K
quantity: solubility (mole fraction)
Answers are plain numbers.

Field request: solubility (mole fraction) | item: O=C(O)[C@@H]1Cc2ccccc2N1 0.00481

----------
details: in isopropanol, 293.25 K
quantity: solubility (mole fraction)
One number for each entry.

Field request: solubility (mole fraction) | item: O=C(O)[C@@H]1Cc2ccccc2N1 0.00197

----------
conditions: in methanol, 288.25 K
quantity: solubility (mole fraction)
Answers are plain numbers.

Field request: solubility (mole fraction) | item: O=C(O)[C@@H]1Cc2ccccc2N1 0.00543

----------
details: in n-propanol, 328.15 K
quantity: solubility (mole fraction)
Give bare numbers.

Field request: solubility (mole fraction) | item: O=C(O)[C@@H]1Cc2ccccc2N1 0.0107

----------
conditions: in methanol, 302.95 K
quantity: solubility (mole fraction)
Numbers only.

Field request: solubility (mole fraction) | item: O=C(O)[C@@H]1Cc2ccccc2N1 0.0103

----------
conditions: in methanol, 323.15 K
quantity: solubility (mole fraction)

Field request: solubility (mole fraction) | item: O=C(O)[C@@H]1Cc2ccccc2N1 0.019

----------
details: in n-butanol, 308.05 K
quantity: solubility (mole fraction)

Field request: solubility (mole fraction) | item: O=C(O)[C@@H]1Cc2ccccc2N1 0.00708

----------
details: in isopropanol, 343.05 K
quantity: solubility (mole fraction)
Numbers only.

Field request: solubility (mole fraction) | item: O=C(O)[C@@H]1Cc2ccccc2N1 0.0241

----------
conditions: in n-butanol, 328.05 K
quantity: solubility (mole fraction)
Answers are plain numbers.

Field request: solubility (mole fraction) | item: O=C(O)[C@@H]1Cc2ccccc2N1 0.0131

----------
settings: in ethanol, 318.55 K
quantity: solubility (mole fraction)
Answers are plain numbers.

Field request: solubility (mole fraction) | item: O=C(O)[C@@H]1Cc2ccccc2N1 0.00895

----------
settings: in water, 313.15 K
quantity: solubility (mole fraction)
One number for each entry.

Field request: solubility (mole fraction) | item: O=C(O)[C@@H]1Cc2ccccc2N1 0.000401

----------
details: in ethanol, 292.85 K
quantity: solubility (mole fraction)
Give bare numbers.

Field request: solubility (mole fraction) | item: O=C(O)[C@@H]1Cc2ccccc2N1 0.00284

----------
conditions: in ethanol, 328.75 K
quantity: solubility (mole fraction)

Field request: solubility (mole fraction) | item: O=C(O)[C@@H]1Cc2ccccc2N1 0.0138

----------
conditions: in isopropanol, 288.15 K
quantity: solubility (mole fraction)

Field request: solubility (mole fraction) | item: O=C(O)[C@@H]1Cc2ccccc2N1 0.0015

----------
settings: in n-butanol, 288.35 K
quantity: solubility (mole fraction)
Give bare numbers.

Field request: solubility (mole fraction) | item: O=C(O)[C@@H]1Cc2ccccc2N1 0.00316

----------
settings: in water, 328.65 K
quantity: solubility (mole fraction)
One number for each entry.

Field request: solubility (mole fraction) | item: O=C(O)[C@@H]1Cc2ccccc2N1 0.000673

----------
conditions: in isopropanol, 338.35 K
quantity: solubility (mole fraction)

Field request: solubility (mole fraction) | item: O=C(O)[C@@H]1Cc2ccccc2N1 0.0202

----------
details: in n-propanol, 348.65 K
quantity: solubility (mole fraction)
Give bare numbers.

Field request: solubility (mole fraction) | item: O=C(O)[C@@H]1Cc2ccccc2N1 0.0261

----------
conditions: in ethanol, 303.05 K
quantity: solubility (mole fraction)

Field request: solubility (mole fraction) | item: O=C(O)[C@@H]1Cc2ccccc2N1 0.00454

----------
conditions: in isopropanol, 323.55 K
quantity: solubility (mole fraction)
One number for each entry.

Field request: solubility (mole fraction) | item: O=C(O)[C@@H]1Cc2ccccc2N1 0.0109

----------
settings: in water, 358.15 K
quantity: solubility (mole fraction)

Field request: solubility (mole fraction) | item: O=C(O)[C@@H]1Cc2ccccc2N1 0.00366

----------
conditions: in isopropanol, 298.15 K
quantity: solubility (mole fraction)
Give bare numbers.

Field request: solubility (mole fraction) | item: O=C(O)[C@@H]1Cc2ccccc2N1 0.0028

----------
conditions: in ethanol, 338.25 K
quantity: solubility (mole fraction)
Give bare numbers.

Field request: solubility (mole fraction) | item: O=C(O)[C@@H]1Cc2ccccc2N1 0.0186

----------
settings: in n-propanol, 283.15 K
quantity: solubility (mole fraction)
One number for each entry.

Field request: solubility (mole fraction) | item: O=C(O)[C@@H]1Cc2ccccc2N1 0.000819

----------
conditions: in n-propanol, 318.75 K
quantity: solubility (mole fraction)
Answers are plain numbers.

Field request: solubility (mole fraction) | item: O=C(O)[C@@H]1Cc2ccccc2N1 0.00673

----------
details: in ethanol, 298.25 K
quantity: solubility (mole fraction)
Give bare numbers.

Field request: solubility (mole fraction) | item: O=C(O)[C@@H]1Cc2ccccc2N1 0.00358

----------
details: in n-butanol, 283.15 K
quantity: solubility (mole fraction)
Answers are plain numbers.

Field request: solubility (mole fraction) | item: O=C(O)[C@@H]1Cc2ccccc2N1 0.00228

----------
conditions: in isopropanol, 283.15 K
quantity: solubility (mole fraction)
Give bare numbers.

Field request: solubility (mole fraction) | item: O=C(O)[C@@H]1Cc2ccccc2N1 0.000941

----------
conditions: in n-butanol, 338.15 K
quantity: solubility (mole fraction)
Give bare numbers.

Field request: solubility (mole fraction) | item: O=C(O)[C@@H]1Cc2ccccc2N1 0.0162

----------
settings: in isopropanol, 307.95 K
quantity: solubility (mole fraction)
Numbers only.

Field request: solubility (mole fraction) | item: O=C(O)[C@@H]1Cc2ccccc2N1 0.00504

----------
conditions: in isopropanol, 313.05 K
quantity: solubility (mole fraction)
Give bare numbers.

Field request: solubility (mole fraction) | item: O=C(O)[C@@H]1Cc2ccccc2N1 0.00685

----------
conditions: in n-propanol, 358.15 K
quantity: solubility (mole fraction)

Field request: solubility (mole fraction) | item: O=C(O)[C@@H]1Cc2ccccc2N1 0.0397

----------
conditions: in methanol, 298.15 K
quantity: solubility (mole fraction)
Give bare numbers.

Field request: solubility (mole fraction) | item: O=C(O)[C@@H]1Cc2ccccc2N1 0.00809

----------
conditions: in n-propanol, 303.15 K
quantity: solubility (mole fraction)
One number for each entry.

Field request: solubility (mole fraction) | item: O=C(O)[C@@H]1Cc2ccccc2N1 0.00284

----------
conditions: in water, 288.35 K
quantity: solubility (mole fraction)
Give bare numbers.

Field request: solubility (mole fraction) | item: O=C(O)[C@@H]1Cc2ccccc2N1 0.000309

----------
conditions: in methanol, 318.25 K
quantity: solubility (mole fraction)
Numbers only.

Field request: solubility (mole fraction) | item: O=C(O)[C@@H]1Cc2ccccc2N1 0.0166

----------
details: in isopropanol, 333.15 K
quantity: solubility (mole fraction)
Answers are plain numbers.

Field request: solubility (mole fraction) | item: O=C(O)[C@@H]1Cc2ccccc2N1 0.0169

----------
conditions: in water, 292.25 K
quantity: solubility (mole fraction)
One number for each entry.

Field request: solubility (mole fraction) | item: O=C(O)[C@@H]1Cc2ccccc2N1 0.000316

----------
settings: in methanol, 328.55 K
quantity: solubility (mole fraction)
Give bare numbers.

Field request: solubility (mole fraction) | item: O=C(O)[C@@H]1Cc2ccccc2N1 0.0201

----------
details: in isopropanol, 318.65 K
quantity: solubility (mole fraction)
Numbers only.

Field request: solubility (mole fraction) | item: O=C(O)[C@@H]1Cc2ccccc2N1 0.0093

----------
details: in methanol, 313.15 K
quantity: solubility (mole fraction)

Field request: solubility (mole fraction) | item: O=C(O)[C@@H]1Cc2ccccc2N1 0.0145

----------
settings: in n-propanol, 293.05 K
quantity: solubility (mole fraction)
Numbers only.

Field request: solubility (mole fraction) | item: O=C(O)[C@@H]1Cc2ccccc2N1 0.00153

----------
conditions: in n-butanol, 348.95 K
quantity: solubility (mole fraction)
Give bare numbers.

Field request: solubility (mole fraction) | item: O=C(O)[C@@H]1Cc2ccccc2N1 0.0217

----------
settings: in n-butanol, 318.45 K
quantity: solubility (mole fraction)
Give bare numbers.

Field request: solubility (mole fraction) | item: O=C(O)[C@@H]1Cc2ccccc2N1 0.0102

----------
settings: in isopropanol, 353.15 K
quantity: solubility (mole fraction)

Field request: solubility (mole fraction) | item: O=C(O)[C@@H]1Cc2ccccc2N1 0.0369

----------
settings: in n-butanol, 313.65 K
quantity: solubility (mole fraction)

Field request: solubility (mole fraction) | item: O=C(O)[C@@H]1Cc2ccccc2N1 0.0083

Entry source: BigSolDB 2.1
